The entries below are paired with their reported relative viability.
Tested on: PC-14
ASSAY_COMMENT: relative viability (nuclei count vs DMSO), 5 days (fraction); higher = more cells survive
RECORDED_CONDITIONS: first compound 1 µM
Lab note: jot down the number only; don't add units.

| COMPOUND | READOUT_VALUE |
| --- | --- |
| CCN(CC)CCCCNc1ncc2cc(-c3cc(OC)cc(OC)c3)c(NC(=O)NC(C)(C)C)nc2n1 + CC1(C)CCC(c2ccc(Cl)cc2)=C(CN2CCN(c3ccc(C(=O)NS(=O)(=O)c4ccc(N[C@H](CCN5CCOCC5)CSc5ccccc5)c(S(=O)(=O)C(F)(F)F)c4)cc3)CC2)C1 [Navitoclax] (partner 0.5 µM) | 0.985 |
| CCN(CC)CCCCNc1ncc2cc(-c3cc(OC)cc(OC)c3)c(NC(=O)NC(C)(C)C)nc2n1 + Nc1ncn([C@H]2C[C@H](O)[C@@H](CO)O2)c(=O)n1 [Decitabine] (partner 2 µM) | 0.228 |
| CCN(CC)CCCCNc1ncc2cc(-c3cc(OC)cc(OC)c3)c(NC(=O)NC(C)(C)C)nc2n1 + Cc1nc(NC(=O)N2CCC[C@H]2C(N)=O)sc1-c1ccnc(C(C)(C)C(F)(F)F)c1 [Alpelisib] (partner 2 µM) | 0.943 |
| CCN(CC)CCCCNc1ncc2cc(-c3cc(OC)cc(OC)c3)c(NC(=O)NC(C)(C)C)nc2n1 + CCNC(=O)c1noc(-c2cc(C(C)C)c(O)cc2O)c1-c1ccc(CN2CCOCC2)cc1 [Luminespib] (partner 0.01 µM) | 0.138 |
| O=c1cc(N2CCOCC2)oc2c(-c3cccc4c3sc3ccccc34)cccc12 + CC1(C)CCC(c2ccc(Cl)cc2)=C(CN2CCN(c3ccc(C(=O)NS(=O)(=O)c4ccc(N[C@H](CCN5CCOCC5)CSc5ccccc5)c(S(=O)(=O)C(F)(F)F)c4)cc3)CC2)C1 [Navitoclax] (partner 0.5 µM) | 1.03 |

Indicate the recorded relative viability value for this compound: O=c1cc(N2CCOCC2)oc2c(-c3cccc4c3sc3ccccc34)cccc12 + Cc1nc(NC(=O)N2CCC[C@H]2C(N)=O)sc1-c1ccnc(C(C)(C)C(F)(F)F)c1 [Alpelisib] (partner 2 µM) 0.978

Hello, please tell me recorded relative viability for this one: CCN(CC)CCCCNc1ncc2cc(-c3cc(OC)cc(OC)c3)c(NC(=O)NC(C)(C)C)nc2n1 + N=C(N)NC(=N)NCCc1ccccc1 [Phenformin] (partner 250 µM) 0.387

Return reported relative viability. Input compound: CCN(CC)CCCCNc1ncc2cc(-c3cc(OC)cc(OC)c3)c(NC(=O)NC(C)(C)C)nc2n1 + CC(C)C[C@H](NC(=O)[C@H](Cc1ccccc1)NC(=O)c1cnccn1)B(O)O [Bortezomib] (partner 0.002 µM) 0.843

Indicate its recorded relative viability; the compound in question is CCN(CC)CCCCNc1ncc2cc(-c3cc(OC)cc(OC)c3)c(NC(=O)NC(C)(C)C)nc2n1 + O=C(CCCCCCC(=O)Nc1ccccc1)NO [Vorinostat] (partner 1 µM) 0.622

Answer with the recorded relative viability of O=c1cc(N2CCOCC2)oc2c(-c3cccc4c3sc3ccccc34)cccc12 + N=C(N)NC(=N)NCCc1ccccc1 [Phenformin] (partner 250 µM) only. 0.361

Specify measured relative viability for CCN(CC)CCCCNc1ncc2cc(-c3cc(OC)cc(OC)c3)c(NC(=O)NC(C)(C)C)nc2n1 + CS(=O)(=O)N1CCN(Cc2cc3nc(-c4cccc5[nH]ncc45)nc(N4CCOCC4)c3s2)CC1 [Pictilisib] (partner 1 µM) . 0.509

Specify reported relative viability for the compound shown: O=c1cc(N2CCOCC2)oc2c(-c3cccc4c3sc3ccccc34)cccc12 + Cc1cc(Nc2cc(N3CCN(C)CC3)nc(Sc3ccc(NC(=O)C4CC4)cc3)n2)n[nH]1 [Tozasertib] (partner 0.1 µM) 0.577

Specify measured relative viability for CCN(CC)CCCCNc1ncc2cc(-c3cc(OC)cc(OC)c3)c(NC(=O)NC(C)(C)C)nc2n1 + Cc1cc(Nc2cc(N3CCN(C)CC3)nc(Sc3ccc(NC(=O)C4CC4)cc3)n2)n[nH]1 [Tozasertib] (partner 0.1 µM) . 0.598

Tell me measured relative viability for O=c1cc(N2CCOCC2)oc2c(-c3cccc4c3sc3ccccc34)cccc12 + C[C@]1(O)C[C@@H](c2nc(-c3ccc4ccc(-c5ccccc5)nc4c3)c3c(N)nccn32)C1 [Linsitinib] (partner 1 µM) please. 0.848

Specify measured relative viability for CCN(CC)CCCCNc1ncc2cc(-c3cc(OC)cc(OC)c3)c(NC(=O)NC(C)(C)C)nc2n1 + Nc1nc2[nH]cc(CCc3ccc(C(=O)N[C@@H](CCC(=O)O)C(=O)O)cc3)c2c(=O)[nH]1 [Pemetrexed] (partner 0.2 µM) . 0.141
